Test system: Brain
TEST_SUMMARY: Drug level in C57BL/6NT PrCP knock out mouse brain at 100 mg/kg, po
Type: ADME, organism-based
Set-up: dose 100 mg/kg, route oral
PROTOCOL_CONDITIONS: in vivo, read-out: Activity
PROPERTY_NAME: concentration
Answers without a unit are incomplete; give the number and then its unit.

// concentration value for C[C@@H](c1ccc(-c2ccccc2)cc1)[C@H](NC(=O)C(C)(C)N)C(=O)N1CCC[C@H]1c1nc2cc(Cl)c(Cl)cc2[nH]1 : 40 nM

----------
TEST_SUMMARY: Half life in mouse
Format: ADME, organism-based
PROTOCOL_CONDITIONS: in vivo
PROPERTY_NAME: half-life (h)
Kindly provide the numeric value in h only, without the unit symbol.

These solved cases illustrate the format of a correct answer.
C[C@@H](c1ccc(-c2ccc(F)cc2)cc1)[C@H](NC(=O)C(C)(C)O)C(=O)N1CCC[C@H]1c1nc2cc(Cl)c(Cl)cc2[nH]1: 0.8
C[C@@H](c1ccccc1)[C@H](NC(=O)C(C)(C)N)C(=O)N1CCC[C@H]1c1nc2cc(Cl)c(Cl)cc2[nH]1: 1.5

Query COc1ccc(C[C@H](NC(=O)C(C)(C)N)C(=O)N2CC[C@H]2c2nc3cc(Cl)c(Cl)cc3[nH]2)cc1 yields half-life of 1.4

Data point: C[C@@H](c1ccccc1)[C@H](NC(=O)C(C)(C)O)C(=O)N1CCC[C@H]1c1nc2cc(Cl)c(Cl)cc2[nH]1 ; half-life = 0.5

According to the records, this compound CC(C)(N)C(=O)N[C@@H](Cc1ccc(Cl)cc1)C(=O)N1CCC[C@H]1c1nc2cc(Cl)c(Cl)cc2[nH]1 displays half-life of 3

Quick note, half-life for O=C(CCc1ccc(-c2ccccc2)cc1)N1CCC[C@H]1c1ncc(-c2cccc(F)c2)[nH]1 landed at 0.8

----------
TEST_SUMMARY: Clearance in mouse
Assay type: ADME, organism-based
PROTOCOL_CONDITIONS: in vivo
Quick list: clearance per entry.
// units = mL/min/kg; emit number, no label

Field: example entries. Status: answers known.
C[C@@H](c1ccc(-c2ccc(F)cc2)cc1)[C@H](NC(=O)C(C)(C)O)C(=O)N1CCC[C@H]1c1nc2cc(Cl)c(Cl)cc2[nH]1: 23
CC(C)(N)C(=O)N[C@@H](Cc1ccc(-c2ccccc2)cc1)C(=O)N1CCC[C@H]1c1ncc(C(C)(C)C)[nH]1: 11

For CC(C)(N)CC(=O)N[C@@H](Cc1ccc(-c2ccccc2)cc1)C(=O)N1CCC[C@H]1c1nc2cc(Cl)c(Cl)cc2[nH]1 the compound record lists clearance as 14

The reported value for COc1ccc(C[C@H](NC(=O)C(C)(C)N)C(=O)N2CC[C@H]2c2nc3cc(Cl)c(Cl)cc3[nH]2)cc1 in terms of clearance is 25

For reference, reported clearance for CC(C)(Cc1ccc(-c2ccccc2)cc1)C(=O)N1CCC[C@H]1c1nc(-c2cccc(F)c2)c[nH]1 stands at 92

The reported value for Cc1cccc2[nH]c([C@@H]3[C@@H]4C[C@@H]4CN3C(=O)COc3ccc(-c4ccccc4)cc3)nc12 in terms of clearance is 41

Briefly, clearance measured for C[C@@H](c1ccccc1)[C@H](NC(=O)C(C)(C)N)C(=O)N1CCC[C@H]1c1nc2cc(Cl)c(Cl)cc2[nH]1 : 17

// recorded clearance for N#Cc1cccc(-c2ccc(CCC(=O)N3C[C@H](O)C[C@H]3c3nc(-c4cccc(Cl)c4)c[nH]3)cc2)c1 : 82

Looking up O=C(CCc1ccc(-c2ccccc2)cc1)N1CCC[C@H]1c1ncc(-c2cccc(F)c2)[nH]1 , I see its clearance listed as 75

Per the records, this compound ( Cn1cc(-c2ccc(C[C@H](NC(=O)C(C)(C)N)C(=O)N3CCC[C@H]3c3nc4cc(Cl)c(Cl)cc4[nH]3)cc2)ccc1=O ) has clearance equal to 70

Notebook: CC(C)(N)C(=O)N[C@@H](Cc1ccc(-c2ccccc2)cc1)C(=O)N1CCC[C@H]1c1nc2cc(Cl)c(Cl)cc2[nH]1 , clearance read as 12

So for CC(C)(N)C(=O)N[C@@H](Cc1ccc(Cl)cc1)C(=O)N1CCC[C@H]1c1nc2cc(Cl)c(Cl)cc2[nH]1 , the logged clearance turned out to be 7
